Record: IC50 reported on DGKζ (Homo sapiens (Human), UniProt Q13574).
Sequence (Q13574 other isoform, or with tags, fused parts or gaps): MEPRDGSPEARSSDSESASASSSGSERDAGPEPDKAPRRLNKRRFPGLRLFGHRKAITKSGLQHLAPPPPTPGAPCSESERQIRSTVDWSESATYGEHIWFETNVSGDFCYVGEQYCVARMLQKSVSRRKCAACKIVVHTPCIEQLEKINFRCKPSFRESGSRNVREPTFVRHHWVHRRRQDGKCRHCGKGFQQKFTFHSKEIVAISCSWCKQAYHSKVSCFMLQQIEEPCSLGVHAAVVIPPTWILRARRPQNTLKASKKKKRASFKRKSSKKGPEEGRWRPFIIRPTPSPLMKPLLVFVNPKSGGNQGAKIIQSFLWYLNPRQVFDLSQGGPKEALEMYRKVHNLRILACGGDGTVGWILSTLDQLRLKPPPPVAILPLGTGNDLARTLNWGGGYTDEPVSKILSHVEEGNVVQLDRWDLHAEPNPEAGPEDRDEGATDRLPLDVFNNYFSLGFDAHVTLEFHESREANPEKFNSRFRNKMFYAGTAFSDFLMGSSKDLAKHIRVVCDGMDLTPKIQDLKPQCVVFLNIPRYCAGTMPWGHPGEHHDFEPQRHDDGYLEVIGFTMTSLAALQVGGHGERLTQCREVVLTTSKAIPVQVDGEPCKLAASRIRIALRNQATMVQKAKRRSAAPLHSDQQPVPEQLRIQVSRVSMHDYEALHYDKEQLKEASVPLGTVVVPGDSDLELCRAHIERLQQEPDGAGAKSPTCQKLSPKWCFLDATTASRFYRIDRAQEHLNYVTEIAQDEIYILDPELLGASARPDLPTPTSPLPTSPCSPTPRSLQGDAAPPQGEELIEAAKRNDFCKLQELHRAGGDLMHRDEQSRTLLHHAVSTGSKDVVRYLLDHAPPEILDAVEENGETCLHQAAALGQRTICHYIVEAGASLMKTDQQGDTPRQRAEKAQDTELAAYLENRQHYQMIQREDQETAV
MEASUREMENT NAME: IC50 (nM)

INSERT INTO results (molecule, inequality_sign, result_value) VALUES
  ('CC[C@H]1CN(C(C)c2ccc3nc(C)cn3n2)[C@H](CC)CN1c1cc(=O)n(C)c2cc(CC#N)nn12 (single isomer, unassigned) [Compound A38b]', '=', 469),
  ('CC[C@H]1CN(C(C)c2ccc(C3CC3)cc2F)[C@H](CC)CN1c1cc(=O)n(C)c2cc(CC#N)nn12 (stereo partly drawn) [Compound A21]', '=', 717),
  ('CC[C@H]1CN(C(C)c2ccn3nccc3n2)[C@H](CC)CN1c1cc(=O)n(C)c2cc(CC#N)nn12 (single isomer, unassigned) [Compound A39b]', '=', 104),
  ('CC[C@H]1CN(C(C)c2ccc3nc(C)sc3c2)[C@H](CC)CN1c1nc(=O)n(C)c2cc(CC#N)nn12 (single isomer, unassigned) [Compound A53b]', '=', 552),
  ('CC[C@H]1CN(C(C)c2ccc3nc(C)cn3n2)[C@H](CC)CN1c1nc(=O)n(C)c2cc(CC#N)nn12 (single isomer, unassigned) [Compound A45b]', '=', 116),
  ('CC[C@@H]1CN(c2cc(=O)n(C)c3cc(CC#N)nn23)[C@@H](C)CN1C(C)c1ccc2ncsc2c1 (single isomer, unassigned) [Compound A28a]', '=', 21),
  ('CC(c1ccc2ncc(Cl)nc2c1)N1C[C@H](C)N(c2cc(=O)n(C)c3cc(CC#N)nn23)C[C@H]1C (stereo partly drawn) [Compound A8]', '=', 42),
  ('CC[C@H]1CN(C(C)c2ccc3cc(C(F)F)sc3n2)[C@H](CC)CN1c1cc(=O)n(C)c2cc(CC#N)nn12 (single isomer, unassigned) [Compound A37b]', '=', 83),
  ('CC[C@H]1CN(C(C)c2ccc3nc(C)c(F)n3n2)[C@H](CC)CN1c1nc(=O)n(C)c2cc(CC#N)nn12 (single isomer, unassigned) [Compound A48a]', '>', 10000),
  ('CC(c1ccc2c(c1)OC(C)(C)CO2)N1C[C@H](C)N(c2c(C#N)c(=O)n(C)c3cc(CC#N)nn23)C[C@H]1C (single isomer, unassigned) [Compound A12b]', '=', 1150),
  ('CC[C@H]1CN(C(C)c2ccc(F)cc2OC(F)F)[C@H](CC)CN1c1cc(=O)n(C)c2cc(CC#N)nn12 (stereo partly drawn) [Compound A17]', '=', 136),
  ('CC(c1ccc2c(c1)OC(C)(C)CO2)N1C[C@H](C)N(c2c(C#N)c(=O)n(C)c3cc(CC#N)nn23)C[C@H]1C (single isomer, unassigned) [Compound A12a]', '=', 11),
  ('CC[C@H]1CN(C(C)c2ccn3nc(C)cc3n2)[C@H](CC)CN1c1cc(=O)n(C)c2cc(CC#N)nn12 (single isomer, unassigned) [Compound A40a]', '=', 5770),
  ('CC[C@H]1CN(C(C)c2ccn3nc(F)cc3n2)[C@H](CC)CN1c1cc(=O)n(C)c2cc(CC#N)nn12 (single isomer, unassigned) [Compound A41b]', '=', 4560),
  ('CC[C@H]1CN(C(C)c2ccc3nc(C)sc3n2)[C@H](CC)CN1c1c(F)c(=O)n(C)c2cc(CC#N)nn12 (stereo partly drawn) [Compound A36]', '=', 629),
  ('CC[C@@H]1CN(c2cc(=O)n(C)c3cc(CC#N)nn23)[C@@H](C)CN1[C@H](C)c1ccc2ncsc2n1 (single isomer, unassigned) [Compound A29b]', '=', 1540),
  ('CC[C@H]1CN(C(C)c2ccc(C3CC3)nc2)[C@H](CC)CN1c1cc(=O)n(C)c2cc(CC#N)nn12 (stereo partly drawn) [Compound A23]', '=', 105),
  ('CC(c1ccc2nccnc2c1)N1C[C@H](C)N(c2cc(=O)n(C)c3cc(C#N)nn23)C[C@H]1C (stereo partly drawn) [Compound A1]', '=', 1000),
  ('COc1cnc2ccc(C(C)N3C[C@H](C)N(c4cc(=O)n(C)c5cc(CC#N)nn45)C[C@H]3C)cc2n1 (stereo partly drawn) [Compound A7]', '=', 23),
  ('CC(c1ccc2nccnc2c1)N1CCC(c2cc(=O)n(C)c3cc(CC#N)nn23)C[C@H]1C (single isomer, unassigned) [Compound A33a]', '>', 10000),
  ('CC[C@H]1CN(C(C)c2ccn3nc(Cl)cc3n2)[C@H](CC)CN1c1nc(=O)n(C)c2cc(CC#N)nn12 (stereo partly drawn) [Compound A58]', '=', 42),
  ('CC(c1ccc2nccnc2c1)N1CCC(c2cc(=O)n(C)c3cc(CC#N)nn23)C[C@@H]1C (single isomer, unassigned) [Compound A34b]', '>', 10000),
  ('CC[C@H]1CN(C(C)c2ccn3nc(C)cc3n2)[C@H](CC)CN1c1cc(=O)n(C)c2cc(CC#N)nn12 (single isomer, unassigned) [Compound A40b]', '=', 53),
  ('CC[C@H]1CN(C(C)c2ccc3cc(C(F)F)sc3n2)[C@H](CC)CN1c1cc(=O)n(C)c2cc(CC#N)nn12 (single isomer, unassigned) [Compound A37a]', '=', 1580);
